Value source: PubChem BioAssay (NCI)

- Test system: SK-OV-3 ovarian
- TEST: NCI-60 one-dose screen, 48 h (100 = growth as untreated, 0 = no growth, -100 = all killed)
- CONDITIONS USED: 10 µM unless noted
This is part of a sample that, as a whole, favours compounds with a hit. Of some 83,000 tested, about 20% had one in any assay.
ASSAY METRIC: growth (%)
A number alone suffices; assume %.

Query :: # assay system SK-OV-3 ovarian: give growth of "Cc1sc2nc(NCCN)[nH]c(=O)c2c1C"
Result :: 111

Query :: # assay system SK-OV-3 ovarian: give growth of "CCOc1ncc([N+](=O)[O-])c(OCC)n1"
Result :: 97

Query :: # assay system SK-OV-3 ovarian: give growth of COc1cc2c(c(OC)c1OC)C(=O)CC(c1cccc(C(=O)Nc3ccccc3Br)c1)O2 (stereo unspecified)
Result :: 95.4

Query :: # assay system SK-OV-3 ovarian: give growth of "CN(C)CCC(=O)C1CC1"
Result :: 110

Query :: # assay system SK-OV-3 ovarian: give growth of "C=C(c1ccc(C(=O)O)c(F)c1)c1cc2c(cc1C)C(C)(C)CCC2(C)C"
Result :: 84.8

Query :: # assay system SK-OV-3 ovarian: give growth of CCn1cc(C(=O)N/N=C/c2cccc(F)c2)c(=O)c2cc(F)c(N3CCNC(C)C3)c(F)c21 (stereo unspecified)
Result :: 108

###

- System: OVCAR-5 ovarian
- TEST: NCI-60 one-dose screen, 48 h (100 = growth as untreated, 0 = no growth, -100 = all killed)
- CONDITIONS USED: 10 µM unless noted
Compounds without any hit were thinned out: in the full panel of roughly 83,000, 20% have a hit. Active and inactive are the calls of the source. Rule for the calls: active = growth percent below 10; inactive = the rest.
// reported growth for each item listed

# example entries with known answers
MOLECULE	growth
CCOC(=O)NC(=S)n1oc(=O)c2ccccc21	96.6% (inactive)
CN(C)CCC(CCN(C)C)(C(=O)O)c1ccccc1	99.2% (inactive)
Nc1ncnc2c1N=C(c1ccc(F)cc1)CC(c1cccc(Nc3ccnc4cc(Cl)ccc34)c1)N2 (stereo not given)	107% (inactive)
FC(F)(F)c1[nH]ncc1-c1nc2ccc3[nH]ncc3c2c2c1CCCC2	9.73% (active)

Query :: Return growth for the following molecule: "C/C(=C(\c1ccc(OCCN2CCCCCC2)cc1)c1ccc(OC(=O)c2ccccc2)cc1)c1ccc(Cl)cc1"
Result :: 68.5% (inactive)

###

- System: M14 melanoma
- TEST: NCI-60 one-dose screen, 48 h (100 = growth as untreated, 0 = no growth, -100 = all killed)
- CONDITIONS USED: 10 µM unless noted
Compounds without any hit were thinned out: in the full panel of roughly 83,000, 20% have a hit.
Sorting guide: entries reporting growth beneath 30% go in the T pile, the rest go in the F pile.

MOLECULE	CATEGORY LABEL
Cc1nc([P+](c2ccccc2)(c2ccccc2)c2ccccc2)c(N2CCCCC2)o1	F
N#Cc1c(-c2ccccc2)nc2c(c(-c3ccccc3)nn2-c2ccccc2)c1-c1ccc(N2CCCCC2)cc1	F
Cc1ccc(C(=O)c2ccc(CC(=O)N/N=C/c3cccc(O)c3O)n2C)cc1	T
CCOC(=O)/C(=C(/C)NCC(C)C)c1cc(O)c(O)c2c(C)cc(=O)[nH]c12	F
COc1ccc(C(c2cc(OC)c(OC)c(OC)c2)N2CCCCC2)cc1 (centres undefined)	T
Cc1ccc(S(=O)(=O)OC[C@]23CCC(C)(C)C[C@H]2C2=CC[C@@H]4[C@@]5(C)CCCNC(C)(C)[C@@H]5CC[C@@]4(C)[C@]2(C)CC3)cc1	F
CCN(CC)CCOc1ccc(Nc2ncc3cc(-c4c(Cl)cccc4Cl)c(=O)n(CCOC)c3n2)cc1	T
COc1ccc(-c2nc3c(c(-c4ccc(Cl)cc4)nn3-c3ccccc3)c(-c3ccccc3)c2C#N)cc1	F

Lab note: next molecule to report on.
Query :: Would you kindly verify if growth of "COc1cc2c3c(c4c5ccccc5[nH]c4c2c(OC)c1OC)C(=O)N(CCN1CCCCC1)C3=O" is strictly less than 30%?
Result :: T
